Tested Target: MAGL (recombinant wild-type) (Homo sapiens)
Method: 4-NPA assay: MAGL inhibitory activity by hydrolysis of 4-nitrophenylacetate, absorbance at 405 nm
Condition Set: 4-NPA assay (values without footnote [b])
pIC50: −log10 of the molar value.
Parameter: pIC50

In the examples that follow, each entry is paired with its recorded pIC50.
Ask: Output pIC50 of `Cc1ccc2oc(N3CCN(C(=O)c4ccc(-c5noc(C(C)(C)C)n5)c(F)c4)CC3)nc2n1`
Reply: 7.37

Ask: Output pIC50 of `CC(C)(F)Cc1nc(-c2ccc(C(=O)N3CCN(c4nc5nc(Cl)ccc5o4)CC3)cc2)no1`
Reply: 7.23

Ask: Output pIC50 of CC1CN(c2nc3nc(Cl)ccc3o2)CCN1C(=O)c1ccc(-c2noc(C(C)(C)C)n2)cc1 (stereo not shown)
Reply: 7.14

Ask: Output pIC50 of `CC(C)(C)c1nc(-c2ccc(C(=O)N3CCN(c4nc5nccc(Cl)c5o4)CC3)cc2)no1`
Reply: 6.61

Ask: Output pIC50 of `Cc1ccc2oc(N3CCN(C(=O)c4ccc(N5CC6(CCCO6)C5)cc4)CC3)nc2n1`
Reply: 6.31

Ask: Output pIC50 of `Cc1ccc2oc(N3CCN(C(=O)c4ccc(-c5noc(C(C)(C)C)n5)cc4)CC3)nc2n1`
Reply: 7.57

Ask: Output pIC50 of `CC(C)(O)Cc1nc(-c2ccc(C(=O)N3CCN(c4nc5nc(Cl)ccc5o4)CC3)cc2)no1`
Reply: 6.19

Ask: Output pIC50 of `CC(C)=Cc1nc(-c2ccc(C(=O)N3CCN(c4nc5nc(Cl)ccc5o4)CC3)cc2)no1`
Reply: 7.00

Ask: Output pIC50 of `CC(C)(C)c1noc(-c2ccc(C(=O)N3CCN(c4nc5nc(Cl)ccc5o4)CC3)cc2)n1`
Reply: 7.72

Ask: Output pIC50 of `Cc1ccc2oc(N3CCN(C(=O)c4cnc(N5CC6(CCC6(F)F)C5)cc4C)CC3)nc2n1`
Reply: 4.88

[1] CC(=O)N1CCN(c2cc(Cl)cc(C(=O)N3CCN(c4nc5nc(C)ccc5o4)CC3)c2)CC1
[2] Cc1ccc2oc(N3CCN(C(=O)c4ccc(OCCC(F)(F)F)c(-c5ccc(CO)cc5)c4)CC3)nc2n1
[3] CC(C)(C)Cc1nc(-c2ccc(C(=O)N3CCN(c4nc5nc(Cl)ccc5o4)CC3)cc2)no1
[4] CC1(Cc2nc(-c3ccc(C(=O)N4CCN(c5nc6nc(Cl)ccc6o5)CC4)cc3)no2)CC1
Ask: Write the entries in order, lowest recorded pIC50 first. In your reply, arrange the labels in the requested order.
Reply: 1, 2, 4, 3

###

Tested Target: MAGL (recombinant wild-type) (Homo sapiens)
Sequence (Q99685 1-303): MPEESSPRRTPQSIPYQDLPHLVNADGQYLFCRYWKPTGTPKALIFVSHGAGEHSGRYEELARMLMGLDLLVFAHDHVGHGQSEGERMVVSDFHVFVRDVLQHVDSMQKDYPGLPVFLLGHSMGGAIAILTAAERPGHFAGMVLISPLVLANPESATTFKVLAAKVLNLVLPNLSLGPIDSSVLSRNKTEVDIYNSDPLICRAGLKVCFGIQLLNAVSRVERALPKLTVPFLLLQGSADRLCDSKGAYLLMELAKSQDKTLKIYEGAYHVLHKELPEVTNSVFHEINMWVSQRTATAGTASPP
Method: 4-NPA assay: MAGL inhibitory activity by hydrolysis of 4-nitrophenylacetate, absorbance at 405 nm
Condition Set: 4-NPA assay (values without footnote [b])
Parameter: IC50 (nM)

Ask: Output IC50 of `Cc1ccc2oc(N3CCN(C(=O)c4cnc(OCC5(C(F)(F)F)CC5)c(C)c4)CC3)nc2n1`
Reply: 77

Ask: Output IC50 of `CC(C)(C)n1cnc(-c2ccc(C(=O)N3CCN(c4nc5nc(Cl)ccc5o4)CC3)cc2)n1`
Reply: 29

Ask: Output IC50 of `CCC(C)(C)OC1CN(c2ccc(C(=O)N3CCN(c4nc5nc(Cl)ccc5o4)CC3)cc2)C1`
Reply: 5

Ask: Output IC50 of `Cc1ccc2oc(N3CCN(C(=O)c4ccc(-c5noc(CC(C)(C)C)n5)c(-c5ccc(CO)cc5)c4)CC3)nc2n1`
Reply: 12

Ask: Output IC50 of `CC(C)(C)Cn1cnc(-c2ccc(C(=O)N3CCN(c4nc5nc(Cl)ccc5o4)CC3)cc2)c1`
Reply: 3

Ask: Output IC50 of `CC(C)(C)Cc1nnc(-c2ccc(C(=O)N3CCN(c4nc5nc(Cl)ccc5o4)CC3)cc2)o1`
Reply: 10

[P] Cc1ccc2oc(N3CCN(C(=O)c4ccc(N5CC(OC(C)C(F)(F)F)C5)cc4)CC3)nc2n1 (stereo not shown)
[Q] Cc1ccc2oc(N3CCN(C(=O)c4ccc(N5CC(OC(C)C(F)(F)F)C5)cc4C)CC3)nc2n1 (stereo not shown)
[R] Cc1ccc2oc(N3CCN(C(=O)c4ccc(N5CC6(CCCC6)C5)c(-c5ncc[nH]5)c4)CC3)nc2n1
Ask: Write the entries in order, lowest recorded IC50 first. In your reply, arrange the labels in the requested order.
Reply: P, Q, R

[1] Cc1ccc2oc(N3CCN(C(=O)c4ccc(OCC5(C)CC5)c(F)c4)CC3)nc2n1
[2] CC(C)(C)c1nc(-c2ccc(C(=O)N3CCN(c4nc5nc(C6CC6)ccc5o4)CC3)cc2)no1
[3] Cc1ccc2oc(N3CCN(C(=O)c4ccc(OCC(C)(C)C)c(C)c4)CC3)nc2n1
[4] Cc1cc(C(=O)N2CCN(c3nc4nc(Cl)ccc4o3)CC2)ccc1-c1noc(C(C)(C)C)n1
[5] Cc1ccc2oc(N3CCN(C(=O)c4cnc(OCC5(C(F)(F)F)CC5)c(Cl)c4)CC3)nc2n1
Ask: Order the items by recorded IC50; the first position goes to the largest value. In your reply, arrange the labels in the requested order.
Reply: 2, 1, 5, 3, 4
(2: 2490 nM, 1: 382 nM, 5: 128 nM, 3: 11 nM, 4: 5 nM)

[P] Cc1ccc2oc(N3CCN(C(=O)c4ccc5nc(N6CCCC6)oc5c4)CC3)nc2n1
[Q] Cc1ccc2oc(N3CCN(C(=O)c4ccc5nc(-c6ccccc6)oc5c4)CC3)nc2n1
Ask: Higher IC50: P or Q ? Refer to your chosen item by its label in the answer.
Reply: P
(P: 2330 nM, Q: 115 nM)

###

Tested Target: MAGL (Homo sapiens, UniProt Q99685)
pIC50: −log10 of the molar value.
Parameter: pIC50

In the examples that follow, each entry is paired with its recorded pIC50.
Ask: Output pIC50 of Cc1ccc2oc(N3CCN(C(=O)c4ccc(-c5ncn(C(C)(C)C)n5)c(C)c4)CC3)nc2n1 [Example 96]
Reply: 7.64

Ask: Output pIC50 of Cc1ccc2oc(N3CCN(C(=O)c4cnc(-c5cnn(C(C)(C)C)c5)c(C)c4)CC3)nc2n1 [Example 191]
Reply: 7.01

Ask: Output pIC50 of Cc1cc(C(=O)N2CCN(c3nc4nc(Cl)ccc4o3)CC2)cnc1OCC1CCCCO1 (centres unmarked) [Example 170]
Reply: 7.24

Ask: Output pIC50 of CC(C)(C)c1nnc(-c2ccc(C(=O)N3CCN(c4nc5nc(Cl)ccc5o4)CC3)cc2Cl)o1 [Example 115]
Reply: 8.10

Ask: Output pIC50 of CC(C)(C)n1cnc(-c2ccc(C(=O)N3CCN(c4nc5nc(Cl)ccc5o4)CC3)cc2Cl)n1 [Example 90]
Reply: 7.80

[a] Cc1cc(C(=O)N2CCN(c3nc4nc(Cl)ccc4o3)CC2)cnc1OCC1(C)CC1 [Example 156]
[b] Cc1ccc2oc(N3CCN(C(=O)c4ccc(-n5cnc(C(C)(C)C)n5)c(Cl)c4)CC3)nc2n1 [Example 291]
Ask: Higher pIC50: a or b ? Refer to your chosen item by its label in the answer.
Reply: a

[A] Cc1ccc2oc(N3CCN(C(=O)c4ccc(OCC5(C(F)(F)F)CC5)c(C)n4)CC3)nc2n1 [Example 139]
[B] Cc1ccc2oc(N3CCN(C(=O)c4ccc(-c5nnc(C(C)(C)C)n5C)cc4)CC3)nc2n1 [Example 77]
Ask: Of A and B , whose reported pIC50 is numerically smaller? Refer to your chosen item by its label in the answer.
Reply: B

[a] Cc1ccc2oc(N3CCN(C(=O)c4ccc(-c5cn(CC(C)(C)C)nn5)c(C#N)c4)CC3)nc2n1 [Example 235]
[b] CC(C)(C)c1nnc(-c2ccc(C(=O)N3CCN(c4nc5nc(Cl)ccc5o4)CC3)cc2F)o1 [Example 281]
Ask: Higher pIC50: a or b ? Refer to your chosen item by its label in the answer.
Reply: b

###

Tested Target: MAGL (recombinant wild-type) (Homo sapiens)
Method: 4-NPA assay: MAGL inhibitory activity by hydrolysis of 4-nitrophenylacetate, absorbance at 405 nm
Condition Set: 4-NPA assay (values without footnote [b])
pIC50: −log10 of the molar value.
Parameter: pIC50

Ask: Output pIC50 of `CC(C)(C)OC1CN(c2ccc(C(=O)N3CCN(c4nc5nc(Cl)ccc5o4)CC3)cc2)C1`
Reply: 7.74

Ask: Output pIC50 of `CC(C)(C)c1nc(-c2ccc(C(=O)N3CCN(c4nc5ncccc5o4)CC3)cc2)no1`
Reply: 6.89

Ask: Output pIC50 of `O=C(c1ccc(N2CC3(CCCO3)C2)cc1)N1CCN(c2nc3ncccc3o2)CC1`
Reply: 5.39

Ask: Output pIC50 of `Cc1ccc2oc(N3CCN(C(=O)c4ccc(-c5noc(CC(C)(C)C)n5)cc4)CC3)nc2n1`
Reply: 8.05

Ask: Output pIC50 of `Cc1ccc2oc(N3CCN(C(=O)c4ccc(OCC5(C)CC5)c(Cl)c4)CC3)nc2n1`
Reply: 7.06

[P] Cc1ccc2oc(N3CCN(C(=O)c4ccc(N5CC(OC(C)C(F)(F)F)C5)c(F)c4)CC3)nc2n1 (stereo not drawn)
[Q] CC/C=C/c1nc2ccc(C(=O)N3CCN(c4nc5nc(C)ccc5o4)CC3)cc2o1
[R] COc1ccc2oc(N3CCN(C(=O)c4ccc(-c5noc(C(C)(C)C)n5)cc4)CC3)nc2n1
[S] Cc1ccc2oc(N3CCN(C(=O)c4cnc(N5CC(OC(C)C(F)(F)F)C5)c(C)c4)CC3)nc2n1 (stereo not drawn)
Ask: Order the items by recorded pIC50; the first position goes to the largest value. In your reply, arrange the labels in the requested order.
Reply: P, S, Q, R

[P] CC(OC1CN(c2ccc(C(=O)N3CCN(c4nc5nc(Cl)ccc5o4)CC3)cc2)C1)C(F)(F)F (stereo not drawn)
[Q] Cc1ccc2oc(N3CCN(C(=O)c4ccc5nc(N6CC7(CCCC7)C6)oc5c4)CC3)nc2n1
Ask: Of P and Q , whose reported pIC50 is numerically smaller? Refer to your chosen item by its label in the answer.
Reply: Q

[a] Cc1ccc2oc(N3CCN(C(=O)c4ccc(N5CC(OC(C)C(F)(F)F)C5)cc4Cl)CC3)nc2n1 (stereo not drawn)
[b] CC(OC1CN(c2ccc(C(=O)N3CCN(c4nc5ncccc5o4)CC3)cc2)C1)C(F)(F)F (stereo not drawn)
[c] CC(OC1CN(c2ncc(C(=O)N3CCN(c4nc5nc(Cl)ccc5o4)CC3)cc2F)C1)C(F)(F)F (stereo not drawn)
[d] CC(C)(C)c1nc(-c2ccc(C(=O)N3CCN(c4nc5nc(Cl)ccc5o4)CC3)cc2F)no1
[e] Cc1ccc2oc(N3CCN(C(=O)c4ccc(OCC5(C)CC5)c(-c5ccc(CO)cc5)c4)CC3)nc2n1
Ask: Write the entries in order, lowest recorded pIC50 first. In your reply, arrange the labels in the requested order.
Reply: b, a, c, d, e
(b: 6.45, a: 7.00, c: 7.46, d: 7.82, e: 8.05)
